# System: HCI03 (cells of an ER-positive luminal breast cancer xenograft);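 note: PDX cells carrying CMV promoter-driven luciferase, viability read as total photon flux per second by IVIS imaging following D-luciferin, vehicle control 0.1% DMSO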
# PROTOCOL_SUMMARY: cell viability (% of vehicle); higher = less cytotoxic
# CONDITION_DETAILS: 10 µM; 72 h
cell viability values for the compounds below.
Enter a number only.

Example cases with answers are listed next.
[
  {
    "COMPOUND": "CCCCOc1ccc(C(=O)CCN2CCCCC2)cc1.Cl [Dyclonine HCl]",
    "EXPERIMENTAL_RESULT": 110
  },
  {
    "COMPOUND": "CC(Nc1ncnc2nc[nH]c12)c1cc2cccc(Cl)c2c(=O)n1-c1ccccc1 (stereo not given)",
    "EXPERIMENTAL_RESULT": 53.1
  },
  {
    "COMPOUND": "CCN(CCO)CCCOc1ccc2c(Nc3cc(CC(=O)Nc4cccc(F)c4)[nH]n3)ncnc2c1",
    "EXPERIMENTAL_RESULT": 118
  },
  {
    "COMPOUND": "NCC1OC(OC2C(N)CC(N)C(OC3OC(CO)C(O)C(N)C3O)C2O)C(O)C(O)C1O.O=S(=O)(O)O (stereo not given) [Kanamycin Sulfate]",
    "EXPERIMENTAL_RESULT": 92.9
  },
  {
    "COMPOUND": "CCCc1nc(C(C)(C)O)c(C(=O)O)n1Cc1ccc(-c2ccccc2-c2nn[nH]n2)cc1",
    "EXPERIMENTAL_RESULT": 121
  },
  {
    "COMPOUND": "NC1CCCCC1N.O=C([O-])C(=O)[O-].[Pt+2] (stereo not given)",
    "EXPERIMENTAL_RESULT": 108
  },
  {
    "COMPOUND": "CC(Oc1cc(-c2cnn(C3CCNCC3)c2)cnc1N)c1c(Cl)ccc(F)c1Cl [(R)-Crizotinib]",
    "EXPERIMENTAL_RESULT": 135
  },
  {
    "COMPOUND": "NCCCCC(NC(CCc1ccccc1)C(=O)O)C(=O)N1CCCC1C(=O)O.O.O (stereo not given) [Lisinopril dihydrate]",
    "EXPERIMENTAL_RESULT": 137
  }
]

Reported cell viability for COc1cc(NS(=O)(=O)c2ccc(N)cc2)nc(OC)n1 : what is it?
155

Reported cell viability for COc1ccc2cc(CCC(C)=O)ccc2c1 : what is it?
172

Reported cell viability for CN1CCN(c2ccc(C(=O)/N=c3\[nH][nH]c4ccc(Cc5cc(F)cc(F)c5)cc34)c(NC3CCOCC3)c2)CC1 : what is it?
59.8

Reported cell viability for CN(C)CC=CC(=O)Nc1cc2c(Nc3ccc(F)c(Cl)c3)ncnc2cc1OC1CCOC1 (stereo not given) : what is it?
47.7

Reported cell viability for OCC1OC(OC2(CCl)OC(CCl)C(O)C2O)C(O)C(O)C1Cl (stereo not given) : what is it?
128

Reported cell viability for CC/C(=C(\c1ccccc1)c1ccc(OCCN(C)C)cc1)c1ccccc1 : what is it?
139
